# System: Crabgrass (Digitaria sanguinalis)
# protocol details: Post-emergent herbicidal test
# Assay type: in vivo
# condition label: post-emergence, 504 h, 33 mcg/cm^2, 3 weeks, scale 0 (no phytotoxicity) to 100 (complete kill), read-out: Herbicidal Effectiveness (C)
Field: pest or weed control at 33 µg/cm2. Provide a value for each of the molecules that follow.

Some solved cases for reference:
- molecule: "Fc1ccc(N=c2ssnc2Cl)cc1 [Compound 24]"
  pest or weed control at 33 µg/cm2: "60%"
- molecule: "Cc1c(Cl)cccc1N=c1ssnc1Cl [Compound 21]"
  pest or weed control at 33 µg/cm2: "0%"
- molecule: "Clc1ccc(N=c2ssnc2Cl)c(Cl)c1 [Compound 6]"
  pest or weed control at 33 µg/cm2: "35%"
- molecule: "Clc1cc(Cl)cc(N=c2ssnc2Cl)c1 [Compound 3]"
  pest or weed control at 33 µg/cm2: "55%"
- molecule: "Clc1nssc1=Nc1cccc(Br)c1 [Compound 12]"
  pest or weed control at 33 µg/cm2: "30%"
- molecule: "Clc1ccc(N=c2ssnc2Cl)cc1 [Compound 2]"
  pest or weed control at 33 µg/cm2: "20%"

Respectfully, I request pest or weed control at 33 µg/cm2 for each entry included below.
1. Clc1nssc1=Nc1ccccc1 [Compound 1, 4-chloro-5-phenylimino-1,2,3-dithiazole]
2. Cc1cc(Cl)ccc1N=c1ssnc1Cl [Compound 4]
3. Clc1nssc1=Nc1ccc2ccccc2c1 [Compound 16]
4. Fc1ccccc1N=c1ssnc1Cl [Compound 22]
5. Clc1cccc(N=c2ssnc2Cl)c1 [Compound 15]

1. 20%
2. 20%
3. 20%
4. 0%
5. 10%
